Target: HsNMT1 (Homo sapiens)
Sequence (P30419 1-496): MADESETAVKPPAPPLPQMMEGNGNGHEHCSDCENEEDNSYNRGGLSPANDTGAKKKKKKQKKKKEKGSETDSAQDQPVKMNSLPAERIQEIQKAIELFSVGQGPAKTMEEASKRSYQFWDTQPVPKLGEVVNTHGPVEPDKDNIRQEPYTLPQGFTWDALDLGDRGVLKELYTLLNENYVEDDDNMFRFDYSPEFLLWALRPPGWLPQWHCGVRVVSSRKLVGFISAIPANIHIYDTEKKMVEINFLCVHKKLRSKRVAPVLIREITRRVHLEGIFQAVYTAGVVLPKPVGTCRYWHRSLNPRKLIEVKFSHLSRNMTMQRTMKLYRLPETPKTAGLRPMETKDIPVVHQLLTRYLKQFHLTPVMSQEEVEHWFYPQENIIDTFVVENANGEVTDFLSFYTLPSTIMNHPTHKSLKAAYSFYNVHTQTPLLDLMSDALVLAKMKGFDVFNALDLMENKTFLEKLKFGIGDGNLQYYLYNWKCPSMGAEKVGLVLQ
Assay: Fluorogenic NMT inhibition assay, HsNMT1
Format: biochemical, H. sapiens
Conditions: mean of duplicate or triplicate experiments
Square brackets hold non-standard residues; d marks the D form. Peptide text beside a SMILES is read from it. Aun = NCCCCCCCCCCC(=O)O
REPORTED METRIC: IC50 (µM)

The examples below pair each entry with its known result.
[[record]]
compound = "NCCCCCCCCCC(=O)N[C@@H](CO)C(=O)N[C@@H](CCCCN)C(=O)NCCC1=CCCCC1 [Compound 16]"
system_name = "HsNMT1 (Homo sapiens)"
unit_of_measure = "µM"
result_number = 0.67

[[record]]
compound = "NCCCCCCCC(=O)N[C@@H](CO)C(=O)N[C@@H](CCCCN)C(=O)NCCC1CCCCC1 [Compound 12]"
system_name = "HsNMT1 (Homo sapiens)"
unit_of_measure = "µM"
result_number = 6.75


P = NCCCCCCCCCCC(=O)N[C@@H](CO)C(=O)N[C@@H](CCCCN)C(=O)O [Compound 25] (H-[Aun]-Ser-Lys-OH)
Q = NCCCCCCCCCCC(=O)N[C@@H](CO)C(=O)N[C@@H](CCCCN)C(N)=O [Compound 21] (H-[Aun]-Ser-Lys-NH2)
Task: Hi, I'm comparing P with Q and wondering which one has the bigger number for IC50. Any idea? Returns: label corresponding to the selected item.
Output: P
